# assay-procedure: NOVARTIS: Cytotoxicity against human hepatocellular carcinoma cell line (Huh7)
# Type: toxicity, cell-based, Huh-7
# conditions: Huh7 cells (hepatocellular carcinoma cell line)
assay-endpoint: CC50

Which CC50 value is on record for CCOc1cc(Br)cc(C=C2NC(=S)NC2=O)c1O ? > 100 µM

Could you share which CC50 value was measured for CCCCCN(C(=O)c1cccc(OC)c1)C(CC)c1nc2ccccc2c(=O)n1-c1ccccc1OC (stereo unspecified) ? > 10 µM

// query CC50 value for entry CN(c1ccccc1)S(=O)(=O)c1ccc(C(=O)Nc2ccc(-c3nc4ccccc4[nH]3)cc2)cc1 42.8 µM

What value of CC50 has been reported for the following compound? COc1ccc(S(=O)(=O)N=C2C=C(Nc3ccc(O)cc3)C(=O)c3ccccc32)cc1 2.45 µM

Request the reported CC50 associated with CCOc1ccccc1-n1c(SCC(=O)c2ccc(Cl)cc2)nc2[nH]ncc2c1=O 73 µM

What value of CC50 has been recorded for this entry: CC(=O)C1C(=O)c2c(cccc2[N+](=O)[O-])C1=Nc1ccccc1C (stereo unspecified) 51.7 µM

Look up CC50 for this compound: Cc1ccc(C2CC3=Nc4ccccc4N(C(=O)C(F)(F)F)C(c4ccc(OCc5ccccc5)cc4)C3=C(O)C2)cc1 (stereo unspecified) > 100 µM

Fill in the blank: the reported CC50 of CCOC(=O)COc1ccc(C2NC(=S)NC(C)=C2C(C)=O)cc1OC (stereo unspecified) is ____. > 100 µM

Could you tell me which CC50 is on file for C=CCNc1ncnc2c1c(-c1ccccc1)cn2-c1ccccc1 ? > 100 µM

CC50 lookup needed for CCOC(=O)c1c(NC(=O)CSc2nnc(CNC(=O)c3cccs3)n2-c2cccc(Cl)c2)sc2c1CCCC2 , thanks. > 10 µM

Consider the compound shown here: Cc1ccc(Nc2nc(NN=Cc3ccc(-c4ccc([N+](=O)[O-])cc4)o3)nc(N3CCOCC3)n2)cc1Cl What is its recorded CC50? > 10 µM

State the recorded CC50 for this entry: O=C(Oc1ccc(-c2ccc(OC(=O)c3ccco3)cc2)cc1)c1ccco1 > 10 µM

Record request: CC50 value, item Cc1c(Cl)cccc1NCC(=O)NN=C1CCCC1 > 10 µM

Which CC50 is reported for this compound? O=C(NCCc1ccccc1)C(=O)NN=Cc1ccccc1 > 10 µM

What does the record list as CC50 for OC(CN1CCN(Cc2ccccc2)CC1)Cn1c2ccc(Cl)cc2c2cc(Cl)ccc21 (stereo unspecified) ? 15.7 µM

Requested read-out: CC50. Entry: O=C(c1cc2nc(-c3ccccc3)cc(C(F)(F)F)n2n1)N1CCN(Cc2ccccc2)CC1 > 100 µM

====

# assay-procedure: NOVARTIS: Cytotoxicity against human hepatocellular carcinoma cell line (Huh7)
# Assay type: toxicity, cell-based, Huh-7
# conditions: Huh7 cells (hepatocellular carcinoma cell line)
I'd be grateful if you could share measured CC50 for these entries.

Return reported CC50; argument: CC(Nc1ccccc1)C(=O)Nc1cc(C(F)(F)F)ccc1Cl (stereo not given) 71.4 µM

May I ask what CC50 has been recorded for COCCOC(=O)NCc1ccc(Nc2c(C(C)(C)C)nc3cnccn23)cc1 ? > 10 µM

Return reported CC50; argument: COc1ccc(-c2cn3c([n+]2-c2ccccc2)SCC3)cc1 > 100 µM

Given CCOC(=O)C(C)Oc1cccc2c(=O)n(CC(=O)Nc3ccc(OC(F)(F)F)cc3)ccc12 (stereo not given) , state its recorded CC50. > 10 µM

Could you share which CC50 value was measured for CCC(=O)N(C)CCCNc1ccnc2cc(Cl)ccc12 ? > 100 µM
